# method.notes: Cell growth assay, WST-8 (compounds B1-B126)
# Type: cell-based
# experimental.parameters: 96 h; T47D cell line, WST-8, 4 days; read-out: Cell growth inhibition in T47D cell line IC50
pIC50: −log10 of the molar value.
Listed next: entries and their corresponding pIC50.

For orientation, consider the following solved cases.
1) C[C@@H]1Cc2c(ccc3[nH]ncc23)[C@@H](c2c(F)cc(N3CCC(CN4CCN5c6cc7c(cc6N(C)C[C@@H]5C4)C(=O)N(C4CCC(=O)NC4=O)C7)CC3)cc2F)N1CC(F)F (stereo partly shown)
> 9.00
2) COc1cc(N2CCC3(CC2)CC(CN2CCN4c5ccc6c(c5OC[C@H]4C2)CN(C2CCC(=O)NC2=O)C6=O)C3)ccc1[C@@H]1c2ccc3[nH]ncc3c2C[C@@H](C)N1CC(F)F (stereo partly shown)
> 9.00
3) C[C@@H]1Cc2c(ccc3[nH]ncc23)[C@@H](c2ccc(N3CC4(CCN(C(=O)CN5CCC6(CC5)COc5c6ccc6c5CN(C5CCC(=O)NC5=O)C6=O)CC4)C3)cn2)N1CC(F)(F)F (stereo partly shown)
> 9.00
4) C[C@@H]1Cc2c(ccc3[nH]ncc23)[C@@H](c2c(F)cc(N3CCC(CN4CC(N5CCN6c7cc8c(cc7OC[C@@H]6C5)C(=O)N(C5CCC(=O)NC5=O)C8)C4)CC3)cc2F)N1CC(F)F (stereo partly shown)
> 9.00

Request: Name the reported pIC50 value associated with the molecule COc1cc(N2CCC(N3CC(N4CCN5c6cc7c(cc6OC[C@@H]5C4)C(=O)N(C4CCC(=O)NC4=O)C7)C3)CC2)ccc1[C@@H]1c2ccc3[nH]ncc3c2C[C@@H](C)N1CC(F)F (stereo partly shown)
Result: > 9.00

Request: Param item = `C[C@H]1Cc2c(ccc3[nH]ncc23)[C@H](c2ccc(N3CC4(CCC(CN5CCN6c7ccc8c(c7OC[C@@H]6C5)CN([C@@H]5CCC(=O)NC5=O)C8=O)CC4)C3)cn2)N1CC(F)(F)F` ; retrieve measured pIC50.
Result: > 9.00

Request: Can you look up the measured pIC50 of C[C@@H]1Cc2c(ccc3[nH]ncc23)[C@@H](c2c(F)cc(NC3CN(C(=O)[C@H]4CC[C@H](N5Cc6cc7c(cc6C5)C(=O)N(C5CCC(=O)NC5=O)C7=O)CC4)C3)cc2F)N1CC(F)F (stereo partly shown) for me?
Result: 8.00 to 9.00

====

# tgt: ER (Homo sapiens, UniProt P03372)
# Construct: endogenous in cells; probably T47D or MCF-7
# method.notes: In-cell western blot analysis, relative ER percentage (compounds B1-B126)
# Format: cell-based
# experimental.parameters: ER degradation, 16 hours, read-out: ICW DC50
DC50 values, listed per item

Below, each entry is followed by its recorded DC50 result.
1) C[C@@H]1Cc2c(ccc3[nH]ncc23)[C@@H](c2ccc(N3CCC4(CC3)CC(CN3CCN5c6cc7c(cc6OC[C@@H]5C3)C(=O)N(C3CCC(=O)NC3=O)C7)C4)cn2)N1CC(F)(F)F (some centres unmarked)
10 to 100 nM
2) C[C@@H]1Cc2c(ccc3[nH]ncc23)[C@@H](c2c(F)cc(N3CCC4(CN(C(=O)CN5CCN6c7cc8c(cc7OC[C@@H]6C5)C(=O)N(C5CCC(=O)NC5=O)C8)C4)C3)cc2F)N1CC(F)F (some centres unmarked)
< 10 nM
3) C[C@@H]1Cc2c(ccc3[nH]ncc23)[C@@H](c2c(F)cc(N3CC4(CN(CC(=O)N5CCN6c7cc8c(cc7OC[C@@H]6C5)C(=O)N(C5CCC(=O)NC5=O)C8)C4)C3)cc2F)N1CC(F)F (some centres unmarked)
< 10 nM
4) C[C@@H]1Cc2c(ccc3[nH]ncc23)[C@@H](c2c(F)cc(NC3CN(C(=O)CN4CCN5c6ccc7c(c6OC[C@H]5C4)CN(C4CCC(=O)NC4=O)C7=O)C3)cc2F)N1CC(F)F (some centres unmarked)
10 to 100 nM

Now look at this one.
Request: Tell me the measured DC50 of C[C@H]1Cc2c(ccc3[nH]ncc23)[C@H](c2ccc(NC3CN(C(=O)CN4CCN5c6cc7c(cc6OC[C@@H]5C4)C(=O)N(C4CCC(=O)NC4=O)C7)C3)cn2)N1CC(F)(F)F (some centres unmarked) , please.
Result: 10 to 100 nM
